- Tested on: RS4;11 (BCL-2 dependent acute lymphoblastic leukemia cell line)
- measurement.description: RS4;11 Cell Proliferation Assay
- Format: cell-based
- test.settings: Homo sapiens, RS4-11, RS4;11 cells, read-out: Cellular proliferation assay (IC50, nM) RS4
reported.metric: IC50 (nM)
Give bare numbers, in nM.

compound	IC50 / nM
COc1ccc(CN2CCN(C3CC4(CCN(c5ccc(C(=O)NS(=O)(=O)c6ccc(NC[C@H]7CC[C@](C)(O)CC7)c([N+](=O)[O-])c6)c(Oc6cc7c(F)c[nH]c7nc6C)c5)CC4)C3)[C@H](c3ccccc3C(C)C)C2)cc1 [Example 125]	0.15

Read the next record carefully.
Consider the compound CC(C)c1ccccc1[C@@H]1CN(Cc2ccc(F)c(F)c2)CCN1C1CC2(C1)CN(c1ccc(C(=O)NS(=O)(=O)c3ccc(NC[C@H]4CC[C@](C)(O)CC4)c([N+](=O)[O-])c3)c(Oc3cnc4[nH]ccc4c3)c1)C2 [Example 244] and give its recorded IC50. 0.2
